Assay: NFAT Signaling Pathway (AID 444);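 note: carbachol stimulus at about its EC50 of 1 µM final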
Conditions: Jurkat NFAT-bla M1, carbachol, beta-lactamase ratio, 5 h; at 17.2 µM (top of the series) unless noted
Records with an inconclusive call do not appear. Active and inactive are the calls of the source. Calls come from the whole dose curve; as a rule, active = well fitted curve in either direction with a large enough effect (not every such curve was filed as active); inconclusive = small, poorly fitted or top-dose-only effect, or another doubt; inactive = flat fitted curve, though single readings scatter.
Outcome codes: Yes (active), No (inactive)

compound	category
CCOCCN1CCC(OC(C)=O)C(C)C1 (stereo unspecified)	No
C[C@H]1CCCC(=O)CCCCCc2cc(O)cc(O)c2C(=O)O1	No
Oc1ccc2c3c1O[C@@H]1[C@@H](O)CC[C@]4(O)[C@H](C2)N(CC2CCC2)CC[C@@]314	No
CCn1c(O)c(C(=O)CC2NCCc3ccccc32)c(=O)n(CC)c1=S (stereo unspecified)	No
OC(Cc1ccccc1)(c1ccccc1)C1CN2CCC1CC2 (stereo unspecified)	Yes
CCN(CC)CCN=Cc1c(O)n(CCc2ccccc2)c(=O)[nH]c1=O	No
CN(C)CCc1nn[nH]n1	No
Cn1c(O)c(C=NCCCNC2CCCCC2)c(=O)n(C)c1=O	No
O=C1CC[C@]2(O)[C@H]3Cc4ccc(O)c5c4[C@@]2(CCN3CC2CC2)[C@@H]1O5	No
O=P(c1ccccc1)(c1ccccc1)N1CCCCC1	No
O=c1[nH]c(=O)n(Cc2ccco2)c(O)c1C=NCc1ccc2c(c1)OCO2	No
